System: OVCAR-4 ovarian
PROCEDURE_DETAILS: NCI tumour cell line growth inhibition, 48 h
ENDPOINT: TGI

// worked examples, TGI included
Cc1coc2c1[C@@H](O)[C@@]1(C)[C@H](CCC[C@@H]1C)C2 : > 100 µM
Cc1ncc(CO)c(C=NCCCCCCN=Cc2c(CO)cnc(C)c2[O-])c1[O-].[Cu+2] : > 100 µM
COC(=O)C1CCC(NC(=O)c2csc([C@@H](C[C@H](C(C)C)N(C)C(=O)[C@@H](NC(=O)[C@H]3CCCCN3C)C(C)C)OC(C)=O)n2)CC1 (some centres undefined) : > 33.3 µM
O=C(CCN1CCCCC1)Nc1ccc2sc3ccccc3c(=O)c2n1 : 41.9 µM
CC1CCN(CCC(=O)CC(c2ccccc2)c2c(O)c3ccccc3oc2=O)CC1 (centres undefined) : > 100 µM
Cn1c(=O)c2c3ccccc3c(C(=O)c3ccccc3)n2c2ccccc21 : > 100 µM
COP(=O)(OC)C(C)(C)NC(=O)NC(F)(F)F : > 100 µM
C[C@]12C=CC(=O)C=C1[C@@H](F)C[C@H]1[C@@H]3CC[C@](O)(C(=O)CO)[C@@]3(C)C[C@H](O)[C@@]12F : > 100 µM

Attention now turns to another entry.
Exercise: Tell me its TGI given C[C@]12Cc3cn[nH]c3C(=O)C1CC[C@@H]1C2CC[C@@]2(C)C1CC[C@]2(C)O (some centres undefined) as the entry.
Solution: > 100 µM
